endpoint: melting point

[[record]]
compound = "CC(=O)c1cnc(-c2ccccc2)c(-c2ccc(=O)n(C(C)C)n2)c1"
endpoint = "melting point"
recordedmeasurement = "207 to 208 °C"


Now turn to the next compound.
Query string: Supply reported melting point belonging to this compound: O=C1c2c(O)ccc(O)c2C(=O)c2c(NCCN3CCCC3CO)ccc(NCCN3CCCC3CO)c21 (centres undefined)
Result string: 202 to 204 °C

====

Measured melting point accompanies every entry in the list below.

[[record]]
compound = "CCCCCCC(=O)NCc1cccc2c1C(=O)N(C1CCC(=O)NC1=O)C2=O (stereo unspecified)"
recordedmeasurement = "130 to 132 °C"


Query string: Supply reported melting point belonging to this compound: CCCCCCCC(=O)Oc1ccc(-c2ccc(C#N)cc2)cc1
Result string: 77.5 to 77.9 °C

Query string: Supply reported melting point belonging to this compound: Brc1cncc(-c2ccccc2)c1
Result string: 42 to 44 °C

Query string: Supply reported melting point belonging to this compound: N#Cc1cc(OCCOCC2CC2)ccc1OCC(O)CNCCNC(=O)Nc1ccccc1 (stereo unspecified)
Result string: 110 to 113 °C
